Johnsongrass plant response rating overview
Tested on: johnsongrass (Sorghum halepense)
EXPERIMENT SUMMARY: Test B pre-/postemergence plant response
Type: in vivo
MEASUREMENT PARAMETERS: Preemergence; 8 g ai/ha; scale 0 to 100
The response must contain the number and no unit.

Known Johnsongrass plant response rating results, listed for orientation:
{"STRUCTURE SMILES": "CCOC(=O)Oc1cnn(C)c(=O)c1-n1nc(-c2ccc(Cl)cc2)cc1C", "TARGET": "johnsongrass (Sorghum halepense)", "Johnsongrass plant response rating": 45}
{"STRUCTURE SMILES": "CCc1cc(-c2ccc(Cl)cc2)nn1-c1c(O)cnn(C)c1=O", "TARGET": "johnsongrass (Sorghum halepense)", "Johnsongrass plant response rating": 0}
{"STRUCTURE SMILES": "Cn1ncc(O)c(-n2nc(-c3ccc(Cl)cc3)cc2C2CC2)c1=O", "TARGET": "johnsongrass (Sorghum halepense)", "Johnsongrass plant response rating": 15}
{"STRUCTURE SMILES": "Cc1cc(-c2ccc(C(F)(F)F)c(F)c2)nn1-c1c(O)c(C(F)(F)F)nn(C)c1=O", "TARGET": "johnsongrass (Sorghum halepense)", "Johnsongrass plant response rating": 0}
{"STRUCTURE SMILES": "CCCc1cc(-c2ccc(Cl)cc2)nn1-c1c(O)cnn(C)c1=O", "TARGET": "johnsongrass (Sorghum halepense)", "Johnsongrass plant response rating": 20}
{"STRUCTURE SMILES": "CCc1cc(-c2ccc(C(F)(F)F)cc2)nn1-c1c(O)c(OC)nn(C)c1=O", "TARGET": "johnsongrass (Sorghum halepense)", "Johnsongrass plant response rating": 70}
{"STRUCTURE SMILES": "Cc1cc(-c2ccc(Cl)cc2)nn1-c1c(OS(=O)(=O)c2cccc3ccccc23)cnn(C)c1=O", "TARGET": "johnsongrass (Sorghum halepense)", "Johnsongrass plant response rating": 0}

With those in mind, consider the next molecule.
Form field, Johnsongrass plant response rating with johnsongrass (Sorghum halepense), item "Cc1cc(-c2ccc(C(F)(F)F)cc2)nn1-c1c(O)c(C(C)C)nn(C)c1=O" : 0

###

Test system: rice (Oryza sativa)
EXPERIMENT SUMMARY: Test B flooded paddy test plant response
Format: in vivo
MEASUREMENT PARAMETERS: Flood (flooded paddy test), 125 g ai/ha; scale 0 to 100, 0 no effect, 100 complete control
Plant response rating, Rice overview
The response must contain the number and no unit.

Known Plant response rating, Rice results, listed for orientation:
{"COMPOUND": "Cc1cc(-c2ccc(Cl)cc2)nn1-c1c(OS(=O)(=O)C2CC2)cnn(C)c1=O [Compound 49]", "TARGET": "rice (Oryza sativa)", "VAL": 0}
{"COMPOUND": "Cn1ncc(O)c(-n2nc(-c3ccc(Cl)cc3)cc2C2CC2)c1=O [Compound 45]", "TARGET": "rice (Oryza sativa)", "VAL": 45}
{"COMPOUND": "CCc1cc(-c2ccc(C(F)(F)F)cc2)nn1-c1c(O)c(C)nn(C)c1=O [Compound 16]", "TARGET": "rice (Oryza sativa)", "VAL": 45}

Documented Plant response rating, Rice of Cc1cc(-c2ccc(Cl)cc2)nn1-c1c(OS(=O)(=O)c2ccccc2)cnn(C)c1=O [Compound 35] : 0

Documented Plant response rating, Rice of CCc1cc(-c2ccc(C(F)(F)F)cc2)nn1-c1c(OC(=O)OC(C)C)cnn(C)c1=O [Compound 12] : 70

Documented Plant response rating, Rice of CCCC(=O)Oc1cnn(C)c(=O)c1-n1nc(-c2ccc(Cl)cc2)cc1C [Compound 56] : 0

Documented Plant response rating, Rice of CCc1cc(-c2ccc(Cl)c(Cl)c2)nn1-c1c(OC(=O)OC(C)C)cnn(C)c1=O [Compound 22] : 0

Documented Plant response rating, Rice of Cc1cc(-c2ccc(Cl)cc2)nn1-c1c(OS(=O)(=O)c2ccc(Cl)s2)cnn(C)c1=O [Compound 55] : 0

###

System: surinam grass (Brachiaria decumbens)
EXPERIMENT SUMMARY: Test B pre-/postemergence plant response
Format: in vivo
MEASUREMENT PARAMETERS: 8 g ai/ha, postemergence; 0-100 scale
Surinam Grass plant response rating overview
The response must contain the number and no unit.

{"STRUCTURE SMILES": "Cc1cc(-c2ccc(Cl)cc2)nn1-c1c(OC(=O)c2cccc(Cl)c2)cnn(C)c1=O", "Surinam Grass plant response rating": 65}
{"STRUCTURE SMILES": "Cc1cc(-c2ccc(Cl)cc2)nn1-c1c(OC(=O)c2ccccc2Cl)cnn(C)c1=O", "Surinam Grass plant response rating": 90}
{"STRUCTURE SMILES": "CCc1cc(-c2ccc(Cl)cc2)nn1-c1c(O)cnn(C)c1=O", "Surinam Grass plant response rating": 100}

With those in mind, consider the next compound.
Form field, Surinam Grass plant response rating with surinam grass (Brachiaria decumbens), item "Cc1cc(-c2ccc(Cl)cc2)nn1-c1c(OC(=O)CC(C)C)cnn(C)c1=O" : 95

###

Test system: barnyardgrass (Echinochloa crus-galli)
EXPERIMENT SUMMARY: Test B flooded paddy test plant response
Format: in vivo
MEASUREMENT PARAMETERS: Flood (flooded paddy test), 250 g ai/ha; scale 0 to 100, 0 no effect, 100 complete control
MEASUREMENT LABEL: Plant response rating, Barnyardgrass
The response must contain the number and no unit.

Known Plant response rating, Barnyardgrass results, listed for orientation:
{"MOLECULE": "Cc1cc(-c2ccc(Cl)cc2)nn1-c1c(OS(=O)(=O)C(C)C)cnn(C)c1=O [Compound 50]", "TARGET": "barnyardgrass (Echinochloa crus-galli)", "Plant response rating, Barnyardgrass": 0}
{"MOLECULE": "Cc1cc(-c2ccc(Cl)cc2)nn1-c1c(OC(=O)CC(C)C)cnn(C)c1=O [Compound 37]", "TARGET": "barnyardgrass (Echinochloa crus-galli)", "Plant response rating, Barnyardgrass": 100}
{"MOLECULE": "Cc1cc(-c2ccc(Cl)cc2)nn1-c1c(OC(=O)c2ccccc2Cl)cnn(C)c1=O [Compound 38]", "TARGET": "barnyardgrass (Echinochloa crus-galli)", "Plant response rating, Barnyardgrass": 95}
{"MOLECULE": "CCOC(=O)Oc1cnn(C)c(=O)c1-n1nc(-c2ccc(Cl)cc2)cc1C [Compound 53]", "TARGET": "barnyardgrass (Echinochloa crus-galli)", "Plant response rating, Barnyardgrass": 40}

With those in mind, consider the next molecule.
Documented Plant response rating, Barnyardgrass of Cc1cc(-c2ccc(C(F)(F)F)cc2)nn1-c1c(O)c(C(C)C)nn(C)c1=O [Compound 27] : 30

###

Plant response rating, Johnsongrass overview
Test system: johnsongrass (Sorghum halepense)
EXPERIMENT SUMMARY: Test B pre-/postemergence plant response
Assay type: in vivo
MEASUREMENT PARAMETERS: Preemergence, 62 g ai/ha; scale 0 to 100
The response must contain the number and no unit.

Known Plant response rating, Johnsongrass results, listed for orientation:
{"STRUCTURE SMILES": "Cn1ncc(O)c(-n2nc(-c3ccc(Cl)cc3)cc2C2CC2)c1=O", "Plant response rating, Johnsongrass": 98}
{"STRUCTURE SMILES": "Cc1cc(-c2ccc(Cl)cc2)nn1-c1c(OC(=O)c2cccs2)cnn(C)c1=O", "Plant response rating, Johnsongrass": 85}
{"STRUCTURE SMILES": "Cc1cc(-c2ccc(Br)cc2)nn1-c1c(OC(=O)C2CC2)cnn(C)c1=O", "Plant response rating, Johnsongrass": 100}
{"STRUCTURE SMILES": "Cc1cc(-c2ccc(Cl)cc2)nn1-c1c(OC(=O)CC(C)C)cnn(C)c1=O", "Plant response rating, Johnsongrass": 80}

Documented Plant response rating, Johnsongrass of "Cc1cc(-c2ccc(Cl)cc2)nn1-c1c(OS(=O)(=O)c2ccc(Cl)s2)cnn(C)c1=O" : 95

###

Plant response rating, Morningglory overview
System: morningglory (Ipomoea coccinea)
EXPERIMENT SUMMARY: Test A pre-/postemergence plant response
Assay type: in vivo
MEASUREMENT PARAMETERS: Preemergence, 125 g ai/ha; 0 to 100 scale (0 no effect, 100 complete control)
The response must contain the number and no unit.

Known Plant response rating, Morningglory results, listed for orientation:
{"STRUCTURE SMILES": "Cc1cc(-c2ccc(Cl)cc2)nn1-c1c(OC(=O)c2cccs2)cnn(C)c1=O", "VAL": 20}
{"STRUCTURE SMILES": "CCc1cc(-c2ccc(Cl)cc2)nn1-c1c(O)cnn(C)c1=O", "VAL": 0}
{"STRUCTURE SMILES": "Cc1cc(-c2ccc(C(F)(F)F)c(F)c2)nn1-c1c(O)c(C(F)(F)F)nn(C)c1=O", "VAL": 0}
{"STRUCTURE SMILES": "Cc1cc(-c2ccc(Cl)cc2)nn1-c1c(OC(=O)c2cccc(Cl)c2)cnn(C)c1=O", "VAL": 0}
{"STRUCTURE SMILES": "Cc1cc(-c2ccc(Cl)cc2)nn1-c1c(OS(=O)(=O)c2ccc(Cl)s2)cnn(C)c1=O", "VAL": 0}
{"STRUCTURE SMILES": "Cc1cc(-c2ccc(Cl)cc2)nn1-c1c(OC(=O)Oc2ccccc2)cnn(C)c1=O", "VAL": 20}

With those in mind, consider the next molecule.
Documented Plant response rating, Morningglory of "Cn1ncc(O)c(-n2nc(-c3ccc(Cl)cc3)cc2C2CC2)c1=O" : 0
